biological target: human cationic trypsin (human), P07477; assay: competitive protease inhibition assay (selectivity panel), human trypsin, Boc-VPR-MCA
pKi: −log10 of the molar value.
Each entry below carries its reported pKi.
recorded_metric: pKi

DGGICPRIGRLCRRDSDCPGACICRGNGYCGSGS (modifications not checked) [cMCoTI-fxL1] = 6.00
DGGVCPKILKKCRRDSDCPGACICRATRFCGSGS (modifications not checked) [cMCoTI-fxL5] = 10.10
DGGICPRIGRLCRRDSDCPGACICRATRFCGSGY (modifications not checked) [MCoFx1 cyclic] = 5.95
